- experimental system: UniProtKB Q9Y2R2
- Sequence (Q9Y2R2 whole entry): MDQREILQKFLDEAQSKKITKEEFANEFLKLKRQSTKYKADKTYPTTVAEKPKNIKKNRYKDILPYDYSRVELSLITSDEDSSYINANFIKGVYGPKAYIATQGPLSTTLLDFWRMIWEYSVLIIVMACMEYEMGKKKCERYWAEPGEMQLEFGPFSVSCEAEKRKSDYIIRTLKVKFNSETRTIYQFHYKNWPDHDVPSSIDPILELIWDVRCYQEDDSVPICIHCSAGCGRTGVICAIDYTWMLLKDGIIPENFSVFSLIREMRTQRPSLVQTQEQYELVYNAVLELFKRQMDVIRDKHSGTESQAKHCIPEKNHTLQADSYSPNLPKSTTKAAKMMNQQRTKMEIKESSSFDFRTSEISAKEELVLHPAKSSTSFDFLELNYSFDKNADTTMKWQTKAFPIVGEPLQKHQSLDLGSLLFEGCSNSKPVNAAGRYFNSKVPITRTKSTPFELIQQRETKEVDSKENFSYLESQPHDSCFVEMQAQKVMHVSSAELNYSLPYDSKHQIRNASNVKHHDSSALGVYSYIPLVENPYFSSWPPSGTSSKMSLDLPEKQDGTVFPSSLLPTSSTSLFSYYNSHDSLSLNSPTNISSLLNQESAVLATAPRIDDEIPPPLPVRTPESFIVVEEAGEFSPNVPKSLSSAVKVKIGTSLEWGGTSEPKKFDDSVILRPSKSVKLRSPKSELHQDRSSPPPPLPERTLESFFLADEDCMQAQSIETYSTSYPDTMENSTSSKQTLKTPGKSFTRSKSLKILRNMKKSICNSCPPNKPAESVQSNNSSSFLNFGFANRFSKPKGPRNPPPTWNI

- structure smiles string: "O=C(O)c1ccc(/C=C/C(=O)c2cccc([N+](=O)[O-])c2)cc1"
  experimental system: "UniProtKB Q9Y2R2"
  Ki: "1900 nM"

* * *

- experimental system: UniProt:A0A045ISB3
- Sequence (A0A045ISB3 whole entry): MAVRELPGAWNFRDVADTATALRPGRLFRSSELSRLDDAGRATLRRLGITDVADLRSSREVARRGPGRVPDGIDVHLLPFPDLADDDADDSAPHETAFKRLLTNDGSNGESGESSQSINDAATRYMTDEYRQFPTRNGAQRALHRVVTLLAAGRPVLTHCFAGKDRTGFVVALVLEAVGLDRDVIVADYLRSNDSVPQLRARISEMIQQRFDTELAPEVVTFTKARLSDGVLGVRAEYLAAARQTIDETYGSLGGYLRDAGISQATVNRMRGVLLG
- assay overview: Competitive inhibition of Mycobacterium tuberculosis PtpB assessed as inhibition constant using varying level of pNPP as substrate by Lineweaver-Burk plot analysis
pKi: −log10 of the molar value.
quantity kind: pKi

- structure smiles string: "O=C(O)c1ccc(/C=C/C(=O)c2cccc([N+](=O)[O-])c2)cc1"
  experimental system: "UniProt:A0A045ISB3"
  observed: 6.40

* * *

- experimental system: Tyrosine-protein phosphatase YopH (Yersinia enterocolitica, UniProt P15273)
- Sequence (P15273 whole entry): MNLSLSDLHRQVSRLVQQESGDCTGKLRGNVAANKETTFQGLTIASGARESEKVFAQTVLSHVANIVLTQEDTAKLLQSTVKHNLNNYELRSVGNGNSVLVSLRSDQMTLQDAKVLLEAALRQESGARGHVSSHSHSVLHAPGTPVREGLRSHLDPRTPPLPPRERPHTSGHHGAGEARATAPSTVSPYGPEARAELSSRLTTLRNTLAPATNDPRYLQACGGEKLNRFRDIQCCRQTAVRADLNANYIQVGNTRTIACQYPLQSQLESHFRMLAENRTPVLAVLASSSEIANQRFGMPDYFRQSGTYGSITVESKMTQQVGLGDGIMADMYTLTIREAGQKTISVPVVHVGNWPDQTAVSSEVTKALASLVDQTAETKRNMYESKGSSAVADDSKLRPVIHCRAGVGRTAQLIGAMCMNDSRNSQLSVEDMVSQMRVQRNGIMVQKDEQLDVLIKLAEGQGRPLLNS
- assay overview: Non-competitive mixed inhibition of Yersinia enterocolitica YopH assessed as inhibition constant for enzyme-substrate complex
pKi: −log10 of the molar value.

- compound: "O=C(/C=C/c1ccc(O)c(O)c1)O[C@@H](C(=O)O)[C@@H](OC(=O)/C=C/c1ccc(O)c(O)c1)C(=O)O [CICHORIC ACID]"
  pKi: 4.90

* * *

- experimental system: Tyrosine-protein phosphatase non-receptor type 12 (Homo sapiens, UniProt Q05209)
- Sequence (Q05209 whole entry): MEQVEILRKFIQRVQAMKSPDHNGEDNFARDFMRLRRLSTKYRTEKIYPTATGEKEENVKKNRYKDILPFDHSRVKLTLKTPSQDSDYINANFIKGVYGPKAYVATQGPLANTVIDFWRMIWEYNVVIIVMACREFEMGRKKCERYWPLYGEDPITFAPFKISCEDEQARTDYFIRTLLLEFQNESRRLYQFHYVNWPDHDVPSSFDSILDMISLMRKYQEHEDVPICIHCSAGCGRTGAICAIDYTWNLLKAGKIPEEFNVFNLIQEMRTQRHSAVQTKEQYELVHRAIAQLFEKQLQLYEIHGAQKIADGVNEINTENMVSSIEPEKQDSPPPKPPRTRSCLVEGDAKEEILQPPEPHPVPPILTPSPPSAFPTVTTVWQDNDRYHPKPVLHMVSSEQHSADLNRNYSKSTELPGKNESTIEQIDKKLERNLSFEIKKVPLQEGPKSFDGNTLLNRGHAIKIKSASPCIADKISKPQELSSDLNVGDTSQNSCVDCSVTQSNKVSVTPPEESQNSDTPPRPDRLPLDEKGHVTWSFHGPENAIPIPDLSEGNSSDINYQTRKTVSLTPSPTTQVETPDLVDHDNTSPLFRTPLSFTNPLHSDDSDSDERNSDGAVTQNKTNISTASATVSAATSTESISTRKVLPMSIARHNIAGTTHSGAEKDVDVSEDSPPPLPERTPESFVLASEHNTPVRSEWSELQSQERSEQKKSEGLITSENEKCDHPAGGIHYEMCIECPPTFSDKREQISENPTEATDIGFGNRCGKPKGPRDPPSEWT
quantity kind: Ki (µM)

- structure smiles string: "O=C(O)c1ccc(/C=C/C(=O)c2cccc([N+](=O)[O-])c2)cc1"
  quantity kind: "Ki"
  observed: 1

* * *

- experimental system: Tyrosine-protein phosphatase non-receptor type 22 (Homo sapiens, UniProt Q9Y2R2)
- assay overview: Inhibition of LYP (unknown origin) at 25 uM using pNPP as substrate relative to control
Lab note: anything with inhibition at 25 µM at or over 8% counts as satisfied; the rest go in not satisfied.

- structure smiles string: "O=C(O)c1ccc(/C=C/C(=O)c2ccccc2)cc1"
  assigned class: "not satisfied"
- structure smiles string: "COc1ccc(C(=O)/C=C/c2ccc(C(=O)O)cc2)cc1"
  assigned class: "satisfied"
- structure smiles string: "COc1cc(C(=O)/C=C/c2ccc(C(=O)O)cc2)ccc1O"
  assigned class: "satisfied"
- structure smiles string: "O=C(O)c1ccc(/C=C/C(=O)n2ccnc2)cc1"
  assigned class: "satisfied"
- structure smiles string: "O=C(O)c1ccc(/C=C/C(=O)c2cccc3ccccc23)cc1"
  assigned class: "satisfied"
- structure smiles string: "O=C(O)c1ccc(/C=C/C(=O)c2ccc(Br)cc2)cc1"
  assigned class: "satisfied"
